molecular target: Mushroom tyrosinase (Agaricus bisporus, UniProt O42713+Q00024+C7FF04+C7FF05); test: Inhibition of mushroom tyrosinase using tyrosine as substrate incubated for 20 mins followed by substrate addition and measured every 10 mins for 30 mins
Readout Kind: IC50 (µM)

Structure Smiles String: COc1ccc2oc3ccccc3c(=O)c2c1OC
Assay Result: 4.02

Structure Smiles String: COc1cccc2c(=O)c3ccccc3oc12
Assay Result: 5.33

Structure Smiles String: COc1ccc2c(=O)c3c(C)c(Br)c(OC)c(OC)c3oc2c1
Assay Result: 5.57

Structure Smiles String: COc1ccc2oc3ccccc3c(=O)c2c1
Assay Result: 8.47

Structure Smiles String: O=c1c2ccccc2oc2ccccc12
Assay Result: 8.84

Structure Smiles String: COc1cc(C=O)c2c(=O)c3ccc(O)cc3oc2c1OC
Assay Result: 3.16

a = COc1ccc2c(=O)c3c(C)c(Cl)c(OC)c(OC)c3oc2c1
b = COc1ccc2c(=O)c3ccccc3oc2c1OC
c = O=c1c2ccccc2oc2c(O)cccc12
Ascending by IC50, please. Reply with the labels, ordered as the question asks.
a, b, c
(a: 1.9 µM, b: 5.12 µM, c: 8.46 µM)

###

molecular target: Mushroom tyrosinase (Agaricus bisporus, UniProt O42713+Q00024+C7FF04+C7FF05); experiment: Inhibition of mushroom tyrosinase using tyrosine as substrate incubated for 20 mins followed by substrate addition and measured every 10 mins for 30 mins
Readout Kind: IC50 (µM)

Some solved entries appear below for comparison.
Structure Smiles String: O=c1c2ccccc2oc2ccc(O)cc12
IC50 [µM]: 5.6
--
Structure Smiles String: COc1ccc2c(=O)c3ccccc3oc2c1
IC50 [µM]: 5.14

I = O=c1c2ccccc2oc2cc(O)c(O)cc12
II = COc1ccc2c(=O)c3c(C)cc(OC)c(OC)c3oc2c1
Returns the identifier with the smallest measured IC50 among I and II . Please reply using the label of the selected record.
II
